The reported measurements were obtained from ChEMBL document CHEMBL1125845.

Here the recorded ED50 is given for each entry.
# Tested target: Polyunsaturated fatty acid 5-lipoxygenase (Canis lupus familiaris)
# Test name: Ex vivo inhibition of LTB4 production was measured in dog blood
I only need the number, in mg/kg, no unit after it.

Here is how some molecules turned out for ED50.
INSERT INTO results (molecular_string, tested_target, value_measured) VALUES
  ('O=c1c2ccccc2[nH]n1Cc1cncc(Br)c1', 'Polyunsaturated fatty acid 5-lipoxygenase (Canis lupus familiaris)', 10),
  ('Cc1ncccc1Cn1[nH]c2ccccc2c1=O', 'Polyunsaturated fatty acid 5-lipoxygenase (Canis lupus familiaris)', 10),
  ('Cc1cncc(Cn2[nH]c3ccccc3c2=O)c1', 'Polyunsaturated fatty acid 5-lipoxygenase (Canis lupus familiaris)', 15);

Any idea what ED50 was measured for Cc1ccncc1Cn1[nH]c2ccccc2c1=O ? 5

Any idea what ED50 was measured for O=c1c2ccccc2[nH]n1Cc1cccnc1Cl ? 5

Any idea what ED50 was measured for Cc1ccc(Cn2[nH]c3ccccc3c2=O)cn1 ? 10

Any idea what ED50 was measured for O=c1c2ccccc2[nH]n1Cc1ccc(Cl)nc1 ? 15
